Tested on: tracheal specimens excised from guinea pigs
testProtocol: Inhibitory effect on KCl-induced contraction of tracheal specimens excised from guinea pigs (Magnus tube)
Assay type: cell-based
reportedConditions: Cavia porcellus; dose required for relaxing KCl-induced contraction to 50 %; final KCl concentration: 20 mM; 37 °C; compounds other than acid addition salts used as hydrochloride; 3 specimens per group; read-out: ED₅₀ Effect on KCl-induced contraction
pEC50: −log10 of the molar value.
resultType: pEC50

molecule	measurementTarget	observedResult
CCOc1ccc(S(=O)(=O)NCCN2CCNCC2)c2cccnc12	tracheal specimens excised from guinea pigs	4.22

a = COc1ccc(CCNC(C)CNS(=O)(=O)c2ccc(Cl)c3ncccc23)cc1OC (stereo not drawn)
b = O=S(=O)(NCCN1CCCNCC1)c1ccc(Cl)c2ncccc12
c = O=S(=O)(NCCN1CCNCC1)c1cccc2cnccc12
### Prompt Put the molecules in ascending order of pEC50. Your reply should list the labels following the order given in the request.
### Response a, b, c
(a: 3.96, b: 4.37, c: 4.62)
